test.name: folding enthalpy; higher = less favourable; fluorescence melt of hairpins on a sequencing array, two-state fit
reported.conditions: sodium 0.088 M
Lab note: anything with folding enthalpy at or over -80 kJ/mol counts as criterion met; the rest go in criterion not met.

Below are worked cases with known answers.
[[record]]
sequence_record = "GAACAACGAAAGTTATTC (((.(((....))).)))"
class = "criterion met"

[[record]]
sequence_record = "GTAAACGAAAGTTTAC ((((((....))))))"
class = "criterion not met"

[[record]]
sequence_record = "GACATCGGAAACGATGCC (.(((((....))))).)"
class = "criterion met"

[[record]]
sequence_record = "GGCATTTCGAAAGAAGCC (((..(((....))))))"
class = "criterion not met"

[[record]]
sequence_record = "GATCGCCCAGGCGATC ((((((....))))))"
class = "criterion not met"


Please check the record CGAGCGGAAACGCATCG ((((((....))).))) and state if its folding enthalpy is at or above -80 kJ/mol.
criterion not met

Can you handle GAGATGGGAAACTATCTC (((((.(....).))))) next?
criterion not met

And then GATCTAGGCTAGATC ((((((...)))))) , what is it?
criterion not met

GAAGTGAAAACTTC (((((....))))) ?
criterion not met

Also need GTCATGACGAAAGTCGAC (((..(((....)))))) , thanks.
criterion met

----------
test.name: folding enthalpy; higher = less favourable; fluorescence melt of hairpins on a sequencing array, two-state fit
reported.conditions: sodium 0.088 M
Give folding enthalpy for every item shown.

Illustrative cases are given below, each with its answer.
[[record]]
sequence_record = "GGTGAGCGAAAGCTAACC (((.(((....))).)))"
metric_name = "folding enthalpy"
value_observed = "-33.3 kcal/mol"

[[record]]
sequence_record = "GATCGCTCACGCGATC ((((((....))))))"
metric_name = "folding enthalpy"
value_observed = "-41.2 kcal/mol"

[[record]]
sequence_record = "GGGATAGGAAACTATCCC (((((((....)))))))"
metric_name = "folding enthalpy"
value_observed = "-42.8 kcal/mol"

[[record]]
sequence_record = "GTCCTAGAAATAGGAC ((((((....))))))"
metric_name = "folding enthalpy"
value_observed = "-36.6 kcal/mol"


// below: folding enthalpy requested for another sequence
Look up folding enthalpy: GGTTGACCGAAAGGTACC (((..(((....))))))
-16.5 kcal/mol

----------
test.name: folding enthalpy; higher = less favourable; fluorescence melt of hairpins on a sequencing array, two-state fit
reported.conditions: sodium 0.088 M
metric.name: folding enthalpy (kcal/mol)
Give bare numbers, in kcal/mol.

The examples below pair each entry with its known result.
[[record]]
sequence_record = "GGCACCGGAAACAGTGCC (((((.(....).)))))"
unit_abbreviation = "kcal/mol"
value_observed = -30.9

[[record]]
sequence_record = "AAGTGGAAACACTT (((((....)))))"
unit_abbreviation = "kcal/mol"
value_observed = -19.6

[[record]]
sequence_record = "GGAATCGAAAGATTCC ((((((....))))))"
unit_abbreviation = "kcal/mol"
value_observed = -32.3

[[record]]
sequence_record = "GTACACTCGAAAGAGTAC (((..(((....))))))"
unit_abbreviation = "kcal/mol"
value_observed = -13.8

[[record]]
sequence_record = "CGGACGGAAACGTGCCG ((((((....))).)))"
unit_abbreviation = "kcal/mol"
value_observed = -18.7

[[record]]
sequence_record = "GCTCCGCGAAAGCGATGC ((..(((....)))..))"
unit_abbreviation = "kcal/mol"
value_observed = -13.3


Quick batch: folding enthalpy for everything below.
1. GATCTTCACTAAGATC ((((((....))))))
2. GGTTTCGAAAGAATTACC ((((((....)))..)))
3. GTTTTACGAAAGTATAAC (((.(((....))).)))

[-29.7, -14.2, -23.9]

Hi! Can you tell me folding enthalpy for each of these sequences?
1. GTTCTCGGAAACGAGAAC (((((((....)))))))
2. GACTTTGGAAACAAAGCC (.(((((....))))).)

-34.5
-22.4

Could you tell me folding enthalpy for each of these sequences? They are listed below.
1. GGTATCGGAAACGACACC (((.(((....))).)))
2. GCAAAGCGAAAGCTATGC (((.(((....))).)))
3. GGCCACGAAAGTGTCGCC ((((((....)))..)))
4. GTCGATGGAAACACCGAC ((((.((....)).))))
5. GCTGCTGGAAACAGCAAC (.(((((....))))).)

1. -30.7
2. -33.5
3. -21.3
4. -38
5. -12.1

Please state, for each entry, its recorded folding enthalpy.
1. CGGTTCGGAAACGAGCCG (((.(((....))).)))
2. GAGGCCGAAAGGCTCCTC ((((((....)))..)))

1. -50.5
2. -10.2

Hello, I would appreciate it if you could give folding enthalpy for each entry below.
1. GATCATTCGATGATC ((((((...))))))
2. GCACAGCGAAAGCTTCGC ((..(((....)))..))

-35.8
-12.4
